Parameter: IC50. Scope: all listed entries.
tgt: CD40-CD40L (Homo sapiens, UniProt P25942+P29965)
measurement-protocol: Inhibition of human Fc-conjugated CD40/FLAG-tagged biotinylated CD40L costimulatory protein-protein interaction incubated for 1 hr by ELISA-type assay

{"columns": ["smiles-str", "IC50 / nM"],
 "data": [
  ["COC(=O)c1ccc(C(=O)Nc2ccc(-c3ccc(C(=O)Nc4cccc5cccc(S(=O)(=O)O)c45)cc3)cc2)cc1", 170],
  ["O=C(Nc1ccc(-c2ccc(C(=O)Nc3ccc(S(=O)(=O)O)c4ccccc34)cc2)cc1)c1ccc([N+](=O)[O-])cc1", 2330],
  ["O=C(Nc1ccc(-c2ccc(C(=O)Nc3ccc(C(=O)O)c4ccccc34)cc2)cc1)c1ccc([N+](=O)[O-])cc1", 360],
  ["O=C(Nc1ccc(-c2ccc(C(=O)Nc3cccc4cccc(S(=O)(=O)O)c34)cc2)cc1)c1ccc2[nH]nnc2c1", 990]
]}
